// provenance: PubChem BioAssay (NCI)

Test system: BT-549 breast
MEASUREMENT_NOTES: NCI tumour cell line growth inhibition, 48 h
We begin with a simple list: items and their reported TGI.
Could you give me the number in µM? Just the number is fine.

Q. Please look up its TGI: COC(COC(=O)N1CCN(C=O)CC1)C1=C(N2CC2)C(=O)C(C)=C(N2CC2)C1=O (stereo not given)
A. 1.97

Q. Would you mind doing CC(=O)c1csc2c1C(=O)c1scc(C(C)=O)c1C2=O as well?
A. 3.18

---
Q. Please look up its TGI: CC(=O)Oc1ccccc1C(=O)N=C1[Se]CCCN1C(=O)c1ccccc1OC(C)=O
A. 6.66

====

Tested on: HOP-62 NSCLC
MEASUREMENT_NOTES: NCI tumour cell line growth inhibition, 48 h
VALUE_TYPE: TGI

Q. Please look up its TGI: CC1(C)c2ccccc2C(=O)C12CCC(=O)CC2
A. > 100 µM

Q. Would you mind doing COC(=O)C12C3C4C5(C(=O)OC)C(C1C35C(=O)N(C(C)C)C(C)C)C42C(=O)N(C(C)C)C(C)C (stereo not drawn) as well?
A. > 50 µM

Q. Would you mind doing CC1=NC(=Cc2ccc(O)cc2)C(=O)N1n1c(-c2ccccc2)nc2ccccc2c1=O as well?
A. > 100 µM

====

Test system: SF-295 CNS
MEASUREMENT_NOTES: NCI tumour cell line growth inhibition, 48 h
VALUE_TYPE: TGI

Q. Please look up its TGI: NC(CCC(=O)NC(CSC(=O)N(O)c1ccc(Br)cc1)C(=O)NCC(=O)O)C(=O)O (stereo unspecified)
A. > 100 µM

Q. Would you mind doing COc1c(C)c2c(c(C)c1Cl)Oc1c(C=O)c(O)c(Cl)c(C)c1C(=O)O2 as well?
A. > 100 µM

Q. Would you mind doing COc1cccc(OC)c1/C=C1\OC(=O)c2cccc(OC)c21 as well?
A. > 28.2 µM

Q. Would you mind doing Cc1cn2c(=O)c3ccccc3nc2s1 as well?
A. > 100 µM

Q. Would you mind doing O=[N+]([O-])c1ccc(-n2nnc(C3=NCCCN3)c2-c2ccc(Cl)cc2)cc1 as well?
A. > 100 µM

Now look at this one.
Q. Please look up its TGI: O=C1C(Cl)C(c2ccccc2)N1n1cnc2ccccc2c1=O (stereo unspecified)
A. > 100 µM

====

Test system: EKVX NSCLC
MEASUREMENT_NOTES: NCI tumour cell line growth inhibition, 48 h
We begin with a simple list: items and their reported TGI.

Q. Please look up its TGI: N#CC(C(=O)/C(=N/Nc1nc(=S)[nH]n1N)C(C#N)c1ccccc1)c1ccccc1 (stereo not drawn)
A. > 100 µM

Q. Would you mind doing O=C(O)c1c(-c2nccc3ccccc23)[nH]c(-c2ccccc2)c1S(=O)(=O)O as well?
A. > 100 µM

Q. Would you mind doing COc1cccc(OC)c1/C=C1\OC(=O)c2cccc(OC)c21 as well?
A. > 100 µM

====

Parameter GI50, tested on DU-145 prostate, listed per item.

Q. Please look up its GI50: O=C(CN(C1CCCCC1)C1CCCCC1)Nc1ccc(S(=O)(=O)c2ccc(NC(=O)CN(C3CCCCC3)C3CCCCC3)cc2)cc1
A. 1.14 µM

Q. Would you mind doing Nc1c(C(=O)N/N=C/c2ccc(-c3ccc(Cl)cc3)o2)cnn1-c1ccnc2c(C(F)(F)F)cccc12 as well?
A. > 100 µM

Q. Would you mind doing O=C1/C(=C\c2cccn2Cc2ccccc2)c2ccccc2N1c1c(Cl)cccc1Cl as well?
A. > 100 µM
